procedure.details: inhibitors of intracellular T. cruzi growth, primary screen, luminescence, NIH3T3 host cells (AID 1885);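 further: signal also drops with host cell toxicity which is not excluded here; 0% = plate median of DMSO wells and 100% = zero luminescence signal; higher percent means less beta-gal luminescence so fewer parasites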
assay.context: T. cruzi beta-gal in NIH3T3, luminescence, 90 h; concentration not given here
The whole screen tested about 300,000 compounds, of which about 4,400 (1.5%) were called active.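 How the source made its calls: active means mean inhibition across valid replicates above about 55% (limit read from the data); inconclusive means mean below that limit but half or more replicates reach it; inactive means mean below it, under half of replicates reach it.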 Many of the other results were omitted from the sample, so actives are more common in it than they were.
Could you please pick one outcome from this set? 1 = active, -1 = inactive

molecule: Cc1cc(C)c(NC(=O)C[N+](C)(C)CC(O)COc2cccc3ccccc23)c(C)c1 (stereo not given)
category: -1
//
molecule: O=C(NCC(c1cccs1)N1CCOCC1)c1cc(Cl)ccc1[N+](=O)[O-] (stereo not given)
category: -1
//
molecule: CCOc1ccc(OCc2cccc(C(=O)N(CC)CC)c2)cc1
category: -1
//
molecule: CC(OC(=O)C1CC(=O)N(Cc2ccccc2)C1)C(=O)Nc1ccccc1[N+](=O)[O-] (stereo not given)
category: -1
//
molecule: C/C(=N\NC(=O)c1ccccc1F)c1ccccn1
category: -1
//
molecule: Cc1nc(Nc2ccccc2F)c2nnn(Cc3ccccc3Cl)c2n1
category: -1

What call does the record list for O=S(=O)(O)Oc1c[nH]c2ccccc12 ?
-1

What call does the record list for Cc1cc(C)c(C)c(S(=O)(=O)N2CCN(C(=O)c3ccc4c(=O)n5c(nc4c3)CCC5)CC2)c1C ?
-1

What call does the record list for C/C(=N\NC(=O)Cc1ccc(Cl)cc1)c1ccccn1 ?
1

What call does the record list for CCOC(=O)N1CCC(N2Cc3cccc(C(=O)Nc4c(C)cccc4CC)c3C2=O)CC1 ?
-1

---

procedure.details: inhibitors of intracellular T. cruzi growth, primary screen, luminescence, NIH3T3 host cells (AID 1885);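 further: signal also drops with host cell toxicity which is not excluded here; 0% = plate median of DMSO wells and 100% = zero luminescence signal; higher percent means less beta-gal luminescence so fewer parasites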
assay.context: T. cruzi beta-gal in NIH3T3, luminescence, 90 h; hits give high values; concentration not given here
About 4,400 (1.5%) of roughly 300,000 compounds were called active. The full list was thinned out, with actives kept by preference.
outcome.measure: inhibition (%)
// note: answer is a bare numeric in %

compound: COc1ccc(CNS(=O)(=O)c2cc3c4c(c2)CCN4C(=O)CC3)cc1
result: -11.2
--
compound: CCC(C)(C)n1nnnc1C(c1ccccc1OC)N1CCSCC1 (configuration not stated)
result: -14.5
--
compound: Cc1nnc(N/N=C/C2CC=CCC2)[nH]c1=O (configuration not stated)
result: 0.195
--
compound: O=C(Nc1ccc(N2CCCCC2)cc1)c1cc(S(=O)(=O)N2CCOCC2)ccc1F
result: 22.8
--
compound: Cc1[nH]nc(-c2ccc(OCc3cnn(-c4ccccc4)c3)cc2O)c1Oc1ccc(Cl)cc1
result: 57.6
--
compound: CN1CCC(=NNC(=O)c2ccc(N(Cc3ccc(Cl)cc3)S(C)(=O)=O)cc2)CC1
result: 8.52

Answer with the recorded inhibition for the compound listed here: CCOc1ccc(-n2c(SCC(=O)OC)nc3sc4c(c3c2=O)CCN(C)C4)cc1
5.98

Answer with the recorded inhibition for the compound listed here: COc1ccccc1CNC(=O)COn1nnc2ccc(S(=O)(=O)N3CCOCC3)cc21
3.8

Answer with the recorded inhibition for the compound listed here: O=C(NCCCN1CCOCC1)c1ccc([N+](=O)[O-])cc1[N+](=O)[O-]
64.7

Answer with the recorded inhibition for the compound listed here: O=C(NCc1ccncc1)c1ccc(NS(=O)(=O)c2cccc([N+](=O)[O-])c2)cc1
-11.6

Answer with the recorded inhibition for the compound listed here: CCC(C)(C)n1nnnc1C(c1cccs1)N1CCN(c2nc3ccccc3s2)CC1 (configuration not stated)
66.6

Answer with the recorded inhibition for the compound listed here: O=[N+]([O-])c1ccc(NCCCN2CCOCC2)c(Cl)c1
10.6

Answer with the recorded inhibition for the compound listed here: O=S(=O)(ON(c1ccccc1)S(=O)(=O)c1ccccc1)c1ccccc1
-3.86

Answer with the recorded inhibition for the compound listed here: COc1ccc(CSc2nc(N3CCOCC3)c3c(c2C#N)CC(C)(C)OC3)cc1
60.5

Answer with the recorded inhibition for the compound listed here: N#CCc1c(C#N)c(N)nc(N2CCCC2)c1C#N
8.26

---

procedure.details: inhibitors of intracellular T. cruzi growth, primary screen, luminescence, NIH3T3 host cells (AID 1885);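 further: signal also drops with host cell toxicity which is not excluded here; 0% = plate median of DMSO wells and 100% = zero luminescence signal; higher percent means less beta-gal luminescence so fewer parasites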
assay.context: T. cruzi beta-gal in NIH3T3, luminescence, 90 h; hits give high values; concentration not given here
Screen size: about 300,000 compounds; about 4,400 (1.5%) were called active. The entries come from a sample that favours actives as a whole.
outcome.measure: inhibition (%)
// note: answer is a bare numeric in %

Answer with the recorded inhibition for the molecule listed here: COc1ccc(S(=O)(=O)N2CCOC23CCN(S(=O)(=O)c2ccc([N+](=O)[O-])cc2)CC3)cc1
61.5

Answer with the recorded inhibition for the molecule listed here: c1ccc(-c2nnc(N3CCOCC3)c3ccccc23)cc1
-1.66

Answer with the recorded inhibition for the molecule listed here: Cc1ccc(C)c(NC(=S)NNC(=S)Nc2ccc(C(C)C)cc2)c1
65.3

Answer with the recorded inhibition for the molecule listed here: COc1c(C(=O)N2CCCC2)ccc2ccccc12
-11.3

Answer with the recorded inhibition for the molecule listed here: CCCCn1c(N)c(N(CCC(C)C)C(=O)c2ccc(COc3ccccc3)o2)c(=O)[nH]c1=O
0.734

Answer with the recorded inhibition for the molecule listed here: Cc1ccc(-c2nn(-c3ccccc3)cc2/C=N/NC(=O)c2ccc3c(c2)OCO3)cc1
28

Answer with the recorded inhibition for the molecule listed here: O=C(Nc1ncc([N+](=O)[O-])s1)C1COc2ccccc2O1 (stereo not drawn)
-1.76

Answer with the recorded inhibition for the molecule listed here: COc1ccc2sc(N(CCCN(C)C)C(=O)c3ccc(S(=O)(=O)N(C)C4CCCCC4)cc3)nc2c1
61

Answer with the recorded inhibition for the molecule listed here: O=c1[nH]c(N2CCOCC2)nc2ccccc12
-3.83

Answer with the recorded inhibition for the molecule listed here: Cc1onc(-c2ccccc2Cl)c1C(=O)N(Cc1ccc(N(C)C)cc1)C(C)C
37.7

Answer with the recorded inhibition for the molecule listed here: O=C(NCCNc1ccc([N+](=O)[O-])cc1)c1cccc2c(Br)cccc12
5.94

Answer with the recorded inhibition for the molecule listed here: CC(=O)N(CCCN(C)C)c1nc2ccc(C)cc2s1
57.7

Answer with the recorded inhibition for the molecule listed here: CC1CCN(C(=O)c2cccc(S(=O)(=O)N3CCCc4ccccc43)c2)CC1
12.1

Answer with the recorded inhibition for the molecule listed here: Cc1occc1C(=O)NC1CCCN(Cc2ccc(CC(C)C)cc2)C1 (stereo not drawn)
57.7

Answer with the recorded inhibition for the molecule listed here: COc1ccc(S(=O)(=O)N2CCSCC2)cc1
5.81

Answer with the recorded inhibition for the molecule listed here: CC(C)(C)SCCNC(=O)c1cccc([N+](=O)[O-])c1
-5.13

Answer with the recorded inhibition for the molecule listed here: COc1cc(Br)c(-c2sc(Nc3ccccc3)n[n+]2-c2ccccc2)cc1OC
0.144

Answer with the recorded inhibition for the molecule listed here: CCOc1ccc(S(=O)(=O)Nc2nc3cc(OC)ccc3s2)cc1
-7.46

Answer with the recorded inhibition for the molecule listed here: Cc1nnc(SCC(=O)N/N=C/c2cn(-c3ccccc3)nc2-c2ccc(F)cc2)n1-c1ccccc1
-11.7

Answer with the recorded inhibition for the molecule listed here: COc1ccc(CCNC(=O)CS(=O)(=O)Cc2nc(-c3ccc(C)cc3)oc2C)cc1OC
5.37

Answer with the recorded inhibition for the molecule listed here: CCCOc1ccc(NC(=O)C2OC3OC(C)(C)OC3C3OC(C)(C)OC23)cc1 (stereo not drawn)
4.62

Answer with the recorded inhibition for the molecule listed here: CN(C)CCN(C(=O)CN1C(=O)c2ccccc2C1=O)c1nc2cc3c(cc2s1)OCCO3
66.3

Answer with the recorded inhibition for the molecule listed here: COc1ccc(C)cc1Nc1n[n+](-c2ccccc2)c(-c2cccc(Cl)c2Cl)s1
61.2

---

procedure.details: inhibitors of intracellular T. cruzi growth, primary screen, luminescence, NIH3T3 host cells (AID 1885);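 further: signal also drops with host cell toxicity which is not excluded here; 0% = plate median of DMSO wells and 100% = zero luminescence signal; higher percent means less beta-gal luminescence so fewer parasites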
assay.context: T. cruzi beta-gal in NIH3T3, luminescence, 90 h; concentration not given here
The whole screen tested about 300,000 compounds, of which about 4,400 (1.5%) were called active.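 How the source made its calls: active means mean inhibition across valid replicates above about 55% (limit read from the data); inconclusive means mean below that limit but half or more replicates reach it; inactive means mean below it, under half of replicates reach it.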 The list comes from a sample in which actives are over-represented; it also holds close analogues and randomly drawn compounds.
Could you please pick one outcome from this set? YES for active, NO for inactive

compound: Cc1ccc(-c2noc(CSc3nnc(-c4ccncc4)n3-c3ccc(F)cc3)n2)cc1
category: NO
--
compound: Cc1ccc(-c2ccc(/C=N/NC(=O)CN3CCOCC3)o2)cc1[N+](=O)[O-]
category: NO
--
compound: CCCn1c(C2CCCN2c2nc(-c3ccc(OC)cc3)cs2)nc2ccccc21 (stereo not drawn)
category: NO
--
compound: COc1ccc(-n2nnnc2CNC(=O)c2ccc3ccccc3c2)cc1
category: NO
--
compound: CCC1CCC/C1=N\NC(=O)c1ccc(Cl)cc1 (stereo not drawn)
category: NO

What call does the record list for CC(Sc1nnc(-c2ccccc2F)n1C1CC1)C(N)=O (stereo not drawn) ?
NO

What call does the record list for Cc1cccnc1NC(=O)c1cccc(S(=O)(=O)N2CCN(c3ccc(F)cc3)CC2)c1 ?
NO

What call does the record list for Cc1cccc2cc(CN(Cc3cccs3)C(=S)NCc3ccco3)c(=O)[nH]c12 ?
NO

What call does the record list for COc1ccc(C(CNC(=O)c2cccc(NS(=O)(=O)c3ccc(C)c(F)c3)c2)N2CCCC2)cc1 (stereo not drawn) ?
NO

What call does the record list for CC1(C)CC(=O)C=C(N2CCCC2)C1 ?
NO

What call does the record list for COC(=O)[C@]1(C)N[C@H](c2ccc(-c3ccc(Cl)c(Cl)c3)cc2)[C@@H]2C(=O)N(C)C(=O)[C@@H]21 ?
NO

What call does the record list for COc1cc(N)c(Cl)cc1C(=O)OCC(=O)c1ccc2c(c1)NC(=O)CO2 ?
NO
